Target: 5-lipoxygenase (Homo sapiens)
Construct: in-vitro experiments on isolated polymorphonuclear human granulocytes; endogenous in cells
Sequence (P09917 1-674): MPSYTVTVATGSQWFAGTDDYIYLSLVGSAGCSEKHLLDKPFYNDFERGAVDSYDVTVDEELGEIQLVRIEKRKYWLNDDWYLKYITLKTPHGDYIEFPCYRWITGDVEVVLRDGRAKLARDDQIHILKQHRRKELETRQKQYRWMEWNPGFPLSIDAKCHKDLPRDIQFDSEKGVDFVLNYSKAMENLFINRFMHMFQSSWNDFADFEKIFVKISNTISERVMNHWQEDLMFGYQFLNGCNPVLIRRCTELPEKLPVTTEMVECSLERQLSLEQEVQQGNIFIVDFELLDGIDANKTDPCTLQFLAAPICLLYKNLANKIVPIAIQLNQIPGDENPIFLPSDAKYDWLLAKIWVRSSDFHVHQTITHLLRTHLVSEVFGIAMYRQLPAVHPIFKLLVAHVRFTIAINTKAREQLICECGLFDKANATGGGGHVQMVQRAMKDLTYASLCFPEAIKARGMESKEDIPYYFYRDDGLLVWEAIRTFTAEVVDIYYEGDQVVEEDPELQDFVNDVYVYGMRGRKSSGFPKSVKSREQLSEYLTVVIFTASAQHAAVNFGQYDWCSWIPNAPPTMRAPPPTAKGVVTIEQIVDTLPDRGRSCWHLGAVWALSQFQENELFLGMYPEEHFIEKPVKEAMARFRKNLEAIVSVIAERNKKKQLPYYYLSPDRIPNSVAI
Assay: Inhibition of 5-lipoxygenase: LTB4 formation in isolated polymorphonuclear human granulocytes
Conditions: ionophor A 23 187, LTB4 by HPLC, 37° C.
Structures can show the parent of a compound that is named as a salt.
OUTCOME_MEASURE: IC50 (µM)
Your answer is read as µM, so omit the unit and give the number.

Known results for compounds:
COMPOUND: CC(C)(C)c1cc(C2=NN=C(N3CCCC3)SC2)cc(C(C)(C)C)c1O [Example 17]
MEASURED_RESULT: 10

COMPOUND: CCN(C)C1=NN=C(c2cc(C(C)(C)C)c(O)c(C(C)(C)C)c2)CS1 [Example 8]
MEASURED_RESULT: 13

Lab book: IC50 of CN(C)C1=NN=C(c2cc(C(C)(C)C)c(O)c(C(C)(C)C)c2)CS1 [Example 1] noted as 9

Lab book: IC50 of Cc1cc(C2=NN=C(N(C)C)SC2)cc(C(C)(C)C)c1O [Example 3, hydrobromide] noted as 4
